# System: CCRF-CEM leukemia
# ASSAY COMMENT: NCI tumour cell line growth inhibition, 48 h

| COMPOUND | TGI |
| --- | --- |
| CN(C)c1ccc(N2Cc3ccccc3OC3=C2C(=O)c2c(O)ccc(O)c2C3=O)cn1 | 0.815 µM |
| COc1ccc(CCN2C(=O)C=CC2=O)cc1OC | 2.93 µM |
| C=CC(Cl)(CBr)CCC(Br)=C(C)C (stereo unspecified) | > 100 µM |
| CCCN(CCC)C(=O)C1=Cc2ccc(-c3ccc(C(=O)N4CCCC4)cc3)cc2N=C(N)C1 | 74.4 µM |
| Nc1ccccc1CCCC(=O)O | > 100 µM |
| c1ccc(Cn2cc3c(c2-c2ccccc2)CCc2cnoc2-3)cc1 | > 100 µM |
| Oc1ccc2cc(Br)ccc2c1-c1c(O)ccc2cc(Br)ccc12 | 12 µM |
| CCSc1nc(N)c2c(-c3ccc(OC)c(OC)c3)c3c(nc2n1)CCCC3 | > 100 µM |
| Cc1ccc([N+](=O)[O-])c2c(NCCNC(=O)Cn3ccnc3[N+](=O)[O-])ccnc12 | > 100 µM |
| C#CCOC(=O)c1ccccc1O | > 100 µM |
| CC(=O)N1c2ccccc2C23CCN(C)CC4C(C)OCC(C4CC2=O)C13 (stereo unspecified) | > 100 µM |

----------
Attribute: log10 of TGI
# System: SR leukemia
# ASSAY COMMENT: NCI tumour cell line growth inhibition, 48 h
OBSERVED PROPERTY: log10 of TGI (log10 of the value in µM)

| MOLECULE | DATA VALUE |
| --- | --- |
| O=C1/C(=C/c2cccnc2)C(n2cccc2)c2c(Br)sc(Br)c21 (stereo not given) | 0.80 |
| CC(C)=CCC[C@@H](C)C1=C(O)C(Nc2ccccc2Br)=C(C)C(=O)C1=O | 1.65 |
| O=c1[nH]nc(Cc2ccccc2)n1/N=C/c1c(O)ccc2ccccc12 | 1.78 |
| CC1=NN(c2nc(N)nc(CCl)n2)CC1 | 1.79 |
| COc1cc2c(cc1OCCCOc1cc(-c3ccc(F)cc3)nc(C)n1)N=C[C@@H]1CCCN1C2=O | 1.44 |
| CCC[CH2][Sn]1([CH2]CCC)[O]C(=O)c2cc(I)cc(I)c2[O]1 | 0.23 |
| CC(C)CNC(=O)CCc1cccc2c1oc1c(CCN)cccc12 | 1.46 |
| COc1ccc(CCN2C(=O)C=CC2=O)cc1OC | 0.83 |
| COc1cc2nc3sc(C(=O)Nc4ccc(C(=O)OC(C)C)cc4)c(C(=O)Nc4ccc(Cl)cc4C)n3c(=O)c2cc1OC | 1.15 |

----------
# System: MDA-MB-435
Labels: true (1) for active, false (0) for inactive

| CHEMICAL STRING | CLASSIFICATION |
| --- | --- |
| Cc1nn(-c2nc3ccccc3s2)c(C)c1Oc1ccccc1O | false (0) |
| COc1cc2c3c(n(CCCCOC(=O)C(F)(F)F)c(=O)c2cc1OC)-c1cc2c(cc1C3=O)OCO2 | false (0) |
| Cn1nccc1Nc1nccc(-c2cc3c(s2)C(C)(C)N(CCN2CCOCC2)C3=O)n1 | false (0) |
| O=C(Nc1ccccc1O)c1cccc(NC2=C(Cl)C(=O)N(Cc3ccccc3)C2=O)c1 | false (0) |
| CC1=C[C@H]2c3c(c(O)c(O)c4oc5c(C)cccc5c(=O)c34)[C@H](c3cc(O)c(O)c4oc5c(C)cccc5c(=O)c34)[C@H]2C(C)(C)C1 | false (0) |
| CC[C@H](C)[C@H]1NC(=O)[C@@H](N[C@](C)(O)[C@@H](N)CC(C)C)[C@@H](C)OC(=O)[C@H](Cc2ccc(OC)cc2)N(C)C(=O)[C@@H]2CCCN2C(=O)[C@H](CC(C)C)NC(=O)[C@@H](C)C(=O)[C@H](C(C)C)OC(=O)C[C@@H]1O | true (1) |
| O=[N+]([O-])c1ccc(Br)c([N+](=O)[O-])c1 | false (0) |

----------
# System: DU-145 prostate
# ASSAY COMMENT: NCI tumour cell line growth inhibition, 48 h
This section presents compounds with their documented TGI values.

| COMPOUND | QUALIFIER OPERATOR | TGI [µM] |
| --- | --- | --- |
| C[C@@H]1CN(C(=O)c2ccc(NC(=O)c3cc(O[C@H](C)c4c(Cl)ccc(F)c4Cl)c(N)nn3)cc2)C[C@H](C)N1 | = | 19.2 |
| COc1cc2c(cc1OCCCOc1cc(-c3ccc(F)cc3)nc(C)n1)N=C[C@@H]1CCCN1C2=O | = | 36.1 |
| O=[N+]([O-])c1ccc(Br)c([N+](=O)[O-])c1 | = | 3.12 |
| CCCCCCCC1(N=[N+]=[N-])C(=O)c2ccccc2N(C)C1=O (stereo not drawn) | > | 100 |
| CC1=NN(c2cccc(Cl)c2)C2(SCC(=O)N2c2nc3ccccc3s2)/C1=C\c1ccc(Cl)cc1 (stereo not drawn) | = | 39.2 |
| C[C@H]1O[C@@H](c2c(O)ccc3ccccc23)C[C@@H](N(C)C)C1O (stereo partly drawn) | > | 100 |
| COc1cc2nc(-c3cnc(N(C)C)nc3)nc(NC3CCN(Cc4ccccc4)CC3)c2cc1OC | = | 3.05 |
| COc1cc(-c2nc(Nc3nc4ccccc4[nH]3)nc(N)c2C#N)cc(OC)c1OC | = | 35.6 |
| COC(=O)NC1C(C)OC(OC2C/C=C(/C)C3C=CC4C(OC5CC(OC6CC(O)C(OC7CC(O)C(OC)C(C)O7)C(C)O6)C(O)C(C)O5)C(C)CC(C)C4C3(C)/C(O)=C3\C(=O)OC4(CC(C)C(CO)=CC4/C=C\2C)C3=O)CC1(C)[N+](=O)[O-] (stereo not drawn) | = | 27.5 |
| Cn1c2ccccc2c2c(-c3ccccc3)[n+]3ccccc3nc21 | > | 100 |
| COc1cccc(C2c3cc4c(cc3OC(C)(O)C2C)OCO4)c1O (stereo not drawn) | = | 53.9 |
| Cc1cc(C)nc(NS(=O)(=O)c2ccc(Nc3nncc(=O)n3N)cc2)n1 | > | 100 |
| Cc1ccccc1C1CC(=O)CC(c2ccccc2C)C12C(=O)NC(=O)NC2=O (stereo not drawn) | > | 100 |

----------
Documented TGI across a set of compounds
# System: XF 498 CNS
# ASSAY COMMENT: NCI tumour cell line growth inhibition, 48 h

| COMPOUND | TGI |
| --- | --- |
| CC1=NN(c2ccccc2)C(=O)C1=C1SCCS1 | > 100 µM |
| COc1ccc(C[C@@H]2Cc3cc(OC)c(OC)cc3CN2C)cc1 | > 100 µM |
| Cc1nc2c(n1CCO)C(=O)c1ccccc1C2=O | 92.9 µM |
| CN1C(=O)c2ccccc2NC(=O)c2cnn(C)c21 | > 100 µM |
| COC(=O)/C=C1/CCC2[C@@H](C(=O)CC3[C@]2(C)CCC[C@@]3(C)C(=O)OC)C1C (stereo not given in full) | 30.3 µM |
| COC(=O)C1=C(O)c2cc(OC)c(OC)c(OC)c2[C@H](c2cc(OC)c(OC)c(OC)c2)C1C(=O)OC (stereo not given in full) | > 100 µM |
| COc1cc(/C=C2\[C@H]3c4c(c(OC)c(C)c(OC)c4OC)C[C@@H](C(=O)N2Cc2ccccc2)N3C(=O)OCC(C)C)c(OC)c(C)c1OC | > 100 µM |
| Cc1ccc(NC(=O)CCC(CC(=O)C(C)(C)C)=NNC(=O)C(=O)NN)cc1C | > 100 µM |
| COc1ccc2c(c1)c(=O)c1ccccc1n2/C=C/C(=O)O | > 100 µM |
| O=S1c2ccccc2N=C(c2ccc3ccccc3c2)CC1C1=CC=CCC1 (stereo not given) | 31.6 µM |

----------
The molecules listed here are annotated with their TGI.
# Tested on: OVCAR-8 ovarian
# ASSAY COMMENT: NCI tumour cell line growth inhibition, 48 h
OBSERVED PROPERTY: TGI

| MOLECULE | DATA VALUE |
| --- | --- |
| CC(C)(C)NCc1cc(Nc2ccnc3cc(Cl)ccc23)cc(-c2ccc(Cl)cc2)c1O | 14.8 µM |
| O=C(O)/C=C/n1c2ccccc2c(=O)c2ccccc21 | > 100 µM |
| CSc1c(C(=O)Nc2ccc(Cl)cc2)c(N)nn1-c1ccccc1 | > 100 µM |
| CC1(C)COC(C23C4C5C2C2C3C4C52I)=N1 (stereo unspecified) | > 100 µM |
| C[n+]1c2ccccc2c(CNc2ccc(S(=O)(=O)N=C(N)N)cc2)c2ccccc21 | 55.4 µM |
| COc1cc(C(=O)c2ccc3c(c2)OCO3)cc(OC)c1OC | > 100 µM |
| CN(C)c1ccc(N2Cc3ccccc3OC3=C2C(=O)c2c(O)ccc(O)c2C3=O)cn1 | 1.26 µM |
| O=C(CN1CCN(c2ncnc3ccccc23)CC1)Nc1ccc(Cl)cc1C(=O)c1ccccc1Cl | > 30.9 µM |
| COc1ccc(NC(=O)CC(=O)N2N=C(N3CCCCC3)CC2c2ccccc2)cc1 (stereo unspecified) | > 100 µM |
| C/C(=N\NS(=O)(=O)c1ccc(C)cc1)C(CN1CCOCC1)C(c1ccccc1)c1c(O)c2ccccc2oc1=O (stereo unspecified) | > 100 µM |
| CC(C)CNC(=O)CCc1cccc2c1oc1c(CCN)cccc12 | 34.1 µM |
| COc1cc(N=CN(C)C)c2ncccc2c1 | > 100 µM |
| COc1ccccc1OCC(=O)Nc1sc2c(c1C(N)=O)CCC2 | > 100 µM |
| COc1ccc(CN2C[C@H]3[C@@H](CC(=O)O[C@H]3C)CC2=O)cc1 | > 100 µM |
| COc1ccc(CCN2C(=O)C=CC2=O)cc1OC | 44.1 µM |
| O=S1c2ccccc2N=C(c2ccc3ccccc3c2)CC1C1=CC=CCC1 (stereo unspecified) | 49.4 µM |
| COC(=O)[C@@H]1CN(C(=O)c2ccccc2)C(=O)N1 | > 100 µM |
| CC(=O)c1cccc(NC(=O)/C(=N\NC(C)(C)C)c2c(O)c3ccccc3oc2=O)c1 | > 100 µM |
| CCN1CCC(O)(c2ccc(C)cc2)C(C(=O)c2ccc(C)cc2)C1 (stereo unspecified) | 49.9 µM |
| Cc1cc(C)nc(NS(=O)(=O)c2ccc(Nc3nncc(=O)n3N)cc2)n1 | 29.2 µM |
| COc1ccc2c(c1)c(=O)c1ccccc1n2/C=C/C(=O)O | > 100 µM |
